The measurements presented in this section are drawn from the SangsterLogP compilation.

Assay: from Bachrata, M.; Bezakova, Z.; Pesák, M.; Blesova, M. (1983). Study of physicochemical properties of substances with cancerostatic effect. II. Study of lipo-hydrophilic parameters. Acta Fac. Pharm. …
Conditions: pH 7.0
Catalogue of logD values
Just the number, please, no unit attached.

CCOC(=O)C(C)NC(=O)CCCCSc1ncnc2nc[nH]c12 (centres undefined) :: 1.51
CCOC(=O)CNC(=O)CNC(=O)CNC(=O)CCCCSc1ncnc2nc[nH]c12 :: 0.21
CCCOC(=O)CNC(=O)CCCCSc1ncnc2nc[nH]c12 :: 1.37

Okay, next one:
Inquiry: Which logD is reported for this compound? "CCCCOC(=O)CNC(=O)CCCCSc1ncnc2nc[nH]c12"
Reply text: 1.39
